# target_under_test: CDK9/Cyclin K (Homo sapiens) (UniProt P50750+O75909)
# assay_text: Inhibition of CDK9/cyclin K (unknown origin) at 10 uM by ADP-Glo assay relative to control
# Assay type: protein-complex assay
The reader will find reported inhibition values listed item by item below.
Please give a number only; it is taken to be in %.

Reference set, count: 3
Q: // Input: C[N+]1([O-])CC[C@H](c2c(O)cc(O)c3c(=O)cc(/C=C/c4c(Cl)cccc4Cl)oc23)[C@H](O)C1 (some centres undefined) . Output its inhibition only.
Result: 65.8

Q: // Input: COc1cc(O)c2c(=O)cc(/C=C/c3c(F)cccc3Cl)oc2c1[C@H]1CC[N+](C)([O-])C[C@H]1O (some centres undefined) . Output its inhibition only.
Result: 41.7

Q: // Input: C[N+]1([O-])CC[C@H](c2c(O)cc(O)c3c(=O)cc(/C=C/c4ccccc4Cl)oc23)[C@H](O)C1 (some centres undefined) . Output its inhibition only.
Result: 61.7

The record that follows has no inhibition shown yet.
Q: // Input: C[N+]1([O-])CC[C@H](c2c(O)cc(O)c3c(=O)cc(/C=C/c4ccc(Cl)cc4)oc23)[C@H](O)C1 (some centres undefined) . Output its inhibition only.
Result: 35.8

###

The reader will find reported half-life values listed item by item below.
# assay_text: Half life in BALB/c mouse at 30 mg/kg, po measured for 6 hrs by LC-MS/MS analysis
# Format: ADME, organism-based
# measurement_context: in vivo
Please give a number only; it is taken to be in min.

Q: // Input: COc1cc(O)c2c(=O)cc(/C=C/c3c(F)cccc3Cl)oc2c1[C@H]1CC[N+](C)([O-])C[C@H]1O (some centres not stated) . Output its half-life only.
Result: 9.6

The record that follows has no half-life shown yet.
Q: // Input: C[N+]1([O-])CC[C@H](c2c(O)cc(O)c3c(=O)cc(/C=C/c4ccccc4Cl)oc23)[C@H](O)C1 (some centres not stated) . Output its half-life only.
Result: 102

###

The reader will find reported AUC(0-inf) values listed item by item below.
# assay_text: AUC(0 to infinity) in BALB/c mouse at 30 mg/kg, po measured for 6 hrs by LC-MS/MS analysis
# Type: ADME, organism-based
# measurement_context: in vivo
Quote the value and follow it with the unit of measurement.

Q: // Input: COc1cc(O)c2c(=O)cc(/C=C/c3c(F)cccc3Cl)oc2c1[C@H]1CC[N+](C)([O-])C[C@H]1O (some centres not stated) . Output its AUC(0-inf) only.
Result: 401 ng·h/mL

The record that follows has no AUC(0-inf) shown yet.
Q: // Input: C[N+]1([O-])CC[C@H](c2c(O)cc(O)c3c(=O)cc(/C=C/c4ccccc4Cl)oc23)[C@H](O)C1 (some centres not stated) . Output its AUC(0-inf) only.
Result: 525 ng·h/mL

###

# target_under_test: Cyclin-dependent kinase 7/ cyclin H (Homo sapiens)
# Sequence (P51946 whole entry): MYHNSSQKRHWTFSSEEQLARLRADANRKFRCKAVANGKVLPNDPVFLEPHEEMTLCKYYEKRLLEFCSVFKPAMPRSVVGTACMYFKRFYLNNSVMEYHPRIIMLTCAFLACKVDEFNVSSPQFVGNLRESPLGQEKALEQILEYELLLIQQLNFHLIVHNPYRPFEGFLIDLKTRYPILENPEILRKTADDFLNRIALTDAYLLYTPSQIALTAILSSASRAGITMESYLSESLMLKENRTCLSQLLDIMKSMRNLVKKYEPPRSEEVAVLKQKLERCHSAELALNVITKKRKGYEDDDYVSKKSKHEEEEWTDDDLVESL
# Sequence (P50613 whole entry): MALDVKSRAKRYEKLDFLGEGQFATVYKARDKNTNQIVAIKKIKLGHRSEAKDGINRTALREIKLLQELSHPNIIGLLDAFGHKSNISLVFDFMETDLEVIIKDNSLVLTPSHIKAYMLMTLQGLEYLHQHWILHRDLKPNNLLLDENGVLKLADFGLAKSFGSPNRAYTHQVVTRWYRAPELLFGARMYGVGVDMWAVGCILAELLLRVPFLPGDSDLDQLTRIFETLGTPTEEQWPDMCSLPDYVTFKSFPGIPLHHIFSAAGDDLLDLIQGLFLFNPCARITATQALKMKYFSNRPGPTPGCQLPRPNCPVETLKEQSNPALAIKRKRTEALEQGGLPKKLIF
# assay_text: Inhibition of CDK7/cyclin H (unknown origin) by ADP-Glo assay
The reader will find reported IC50 values listed item by item below.
Please give a number only; it is taken to be in µM.

Reference set, count: 4
Q: // Input: COc1cc(O)c2c(=O)cc(/C=C/c3c(F)cccc3Cl)oc2c1[C@H]1CC[N+](C)([O-])C[C@H]1O (stereo partly specified) . Output its IC50 only.
Result: 0.54

Q: // Input: C[N+]1([O-])CC[C@H](c2c(O)cc(O)c3c(=O)cc(/C=C/c4ccccc4Cl)oc23)[C@H](O)C1 (stereo partly specified) . Output its IC50 only.
Result: 1.46

Q: // Input: C[N+]1([O-])CC[C@H](c2c(O)cc(O)c3c(=O)cc(/C=C/c4c(Cl)cccc4Cl)oc23)[C@H](O)C1 (stereo partly specified) . Output its IC50 only.
Result: 6.44

Q: // Input: C[N+]1([O-])CC[C@H](c2c(O)cc(O)c3c(=O)cc(/C=C/c4c(F)cccc4Cl)oc23)[C@H](O)C1 (stereo partly specified) . Output its IC50 only.
Result: 5.14

The record that follows has no IC50 shown yet.
Q: // Input: C[N+]1([O-])CC[C@H](c2c(O)cc(O)c3c(=O)cc(/C=C/c4ccccc4Br)oc23)[C@H](O)C1 (stereo partly specified) . Output its IC50 only.
Result: 1.62

###

The reader will find reported inhibition at 48 h, 10 µM values listed item by item below.
# assay_text: Antiproliferative activity against HEK293 cells assessed as cell growth inhibition at 10 uM incubated for 48 hrs by MTT assay relative to control
# Assay type: toxicity, cell-based
# measurement_context: human
Please give a number only; it is taken to be in %.

Q: // Input: C[N+]1([O-])CC[C@H](c2c(O)cc(O)c3c(=O)cc(/C=C/c4cccc(Cl)c4)oc23)[C@H](O)C1 (some centres undefined) . Output its inhibition at 48 h, 10 µM only.
Result: 9.2

Q: // Input: COc1cc(O)c2c(=O)cc(/C=C/c3cccc(Cl)c3F)oc2c1[C@H]1CC[N+](C)([O-])C[C@H]1O (some centres undefined) . Output its inhibition at 48 h, 10 µM only.
Result: 17.2

Q: // Input: COc1cc(O)c2c(=O)cc(/C=C/c3c(F)ccc(Cl)c3F)oc2c1[C@H]1CC[N+](C)([O-])C[C@H]1OC (some centres undefined) . Output its inhibition at 48 h, 10 µM only.
Result: 15.5

The record that follows has no inhibition at 48 h, 10 µM shown yet.
Q: // Input: C[N+]1([O-])CC[C@H](c2c(O)cc(O)c3c(=O)cc(/C=C/c4ccc(Cl)cc4)oc23)[C@H](O)C1 (some centres undefined) . Output its inhibition at 48 h, 10 µM only.
Result: 9.1

###

# target_under_test: CDK9/cyclin T1 (Homo sapiens)
# Sequence (O60563 whole entry): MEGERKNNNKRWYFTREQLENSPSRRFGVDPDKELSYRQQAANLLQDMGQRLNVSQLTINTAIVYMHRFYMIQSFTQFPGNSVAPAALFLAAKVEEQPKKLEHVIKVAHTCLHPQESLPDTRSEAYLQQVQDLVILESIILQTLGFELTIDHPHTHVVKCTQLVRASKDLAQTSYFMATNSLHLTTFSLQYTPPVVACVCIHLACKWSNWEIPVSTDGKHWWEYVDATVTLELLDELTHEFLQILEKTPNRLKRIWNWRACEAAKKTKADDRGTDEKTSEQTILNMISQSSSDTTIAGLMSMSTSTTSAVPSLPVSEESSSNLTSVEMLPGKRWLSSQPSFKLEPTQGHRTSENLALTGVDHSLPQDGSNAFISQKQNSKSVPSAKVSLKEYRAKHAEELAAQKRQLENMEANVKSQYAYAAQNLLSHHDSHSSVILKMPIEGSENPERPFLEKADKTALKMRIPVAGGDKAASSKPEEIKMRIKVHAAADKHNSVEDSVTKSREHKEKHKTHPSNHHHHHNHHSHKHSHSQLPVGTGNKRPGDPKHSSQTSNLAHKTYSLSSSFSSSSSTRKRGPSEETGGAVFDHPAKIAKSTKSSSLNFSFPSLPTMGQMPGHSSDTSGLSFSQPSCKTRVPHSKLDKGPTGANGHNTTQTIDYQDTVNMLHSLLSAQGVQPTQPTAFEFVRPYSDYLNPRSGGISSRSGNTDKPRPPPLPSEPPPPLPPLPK
# Sequence (P50750 whole entry): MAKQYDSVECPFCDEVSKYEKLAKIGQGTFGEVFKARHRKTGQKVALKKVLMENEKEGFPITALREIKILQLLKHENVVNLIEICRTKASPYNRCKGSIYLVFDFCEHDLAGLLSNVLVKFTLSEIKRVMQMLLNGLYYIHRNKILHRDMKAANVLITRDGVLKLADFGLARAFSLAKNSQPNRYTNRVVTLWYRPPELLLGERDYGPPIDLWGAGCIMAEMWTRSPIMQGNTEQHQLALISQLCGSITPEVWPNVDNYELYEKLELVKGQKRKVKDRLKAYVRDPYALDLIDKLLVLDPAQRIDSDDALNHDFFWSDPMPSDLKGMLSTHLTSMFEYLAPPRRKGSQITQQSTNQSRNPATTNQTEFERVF
# assay_text: Inhibition of CDK9/cyclin T1 (unknown origin) by ADP-Glo assay
pIC50: −log10 of the molar value.
Tag: yes (1) if measured pIC50 is not below 6, no (0) if it is.

Worked examples, 4 molecules total:
Q: Does the reported pIC50 for CCOc1cc(O)c2c(=O)cc(/C=C/c3c(F)cccc3Cl)oc2c1[C@H]1CC[N+](C)([O-])C[C@H]1O (some centres not stated) fall at or above the 6 mark?
Result: yes (1)

Q: Does the reported pIC50 for COc1cc(O)c2c(=O)cc(/C=C/c3c(F)cccc3Cl)oc2c1[C@H]1CC[N+](C)([O-])C[C@H]1O (some centres not stated) fall at or above the 6 mark?
Result: yes (1)

Q: Does the reported pIC50 for C[N+]1([O-])CC[C@H](c2c(O)cc(O)c3c(=O)cc(/C=C/c4c(Cl)cccc4Cl)oc23)[C@H](O)C1 (some centres not stated) fall at or above the 6 mark?
Result: yes (1)

Q: Does the reported pIC50 for C[N+]1([O-])CC[C@H](c2c(O)cc(O)c3c(=O)cc(/C=C/c4ccccc4Cl)oc23)[C@H](O)C1 (some centres not stated) fall at or above the 6 mark?
Result: yes (1)

Consider now this further molecule.
Q: Does the reported pIC50 for CN1CC[C@H](c2c(O)cc(O)c3c(=O)cc(/C=C/c4c(Cl)cccc4Cl)oc23)[C@H](O)C1 fall at or above the 6 mark?
Result: yes (1)

###

# assay_text: Half life in BALB/c mouse at 2.5 mg/kg, iv measured for 6 hrs by LC-MS/MS analysis
# Format: ADME, organism-based
# measurement_context: in vivo
assay_readout: half-life (min)
Please give a number only; it is taken to be in min.

Q: // Input: C[N+]1([O-])CC[C@H](c2c(O)cc(O)c3c(=O)cc(/C=C/c4ccccc4Cl)oc23)[C@H](O)C1 (stereo partly specified) . Output its half-life only.
Result: 17.4

###

# assay_text: Volume of distribution in BALB/c mouse at 2.5 mg/kg, iv measured for 6 hrs by LC-MS/MS analysis
# Type: ADME, organism-based
# measurement_context: in vivo
assay_readout: Vd
Quote the value and follow it with the unit of measurement.

Q: // Input: C[N+]1([O-])CC[C@H](c2c(O)cc(O)c3c(=O)cc(/C=C/c4ccccc4Cl)oc23)[C@H](O)C1 (stereo partly specified) . Output its Vd only.
Result: 3 L/kg

###

# assay_text: Clearance in BALB/c mouse at 2.5 mg/kg, iv measured for 6 hrs by LC-MS/MS analysis
# Format: ADME, organism-based
# measurement_context: in vivo
assay_readout: clearance (mL/min/kg)
Please give a number only; it is taken to be in mL/min/kg.

Q: // Input: C[N+]1([O-])CC[C@H](c2c(O)cc(O)c3c(=O)cc(/C=C/c4ccccc4Cl)oc23)[C@H](O)C1 (stereo partly specified) . Output its clearance only.
Result: 120

Attribution: ChEMBL document CHEMBL5620385
